biological target: full length N-terminally FLAG-tagged PARP1 (Homo sapiens, UniProt P09874); assay: PARP1 probe displacement HTRF assay; details: read-out: PARP1 HTRF; binned Kd, PARP1 probe displacement HTRF
Sequence (P09874 whole entry): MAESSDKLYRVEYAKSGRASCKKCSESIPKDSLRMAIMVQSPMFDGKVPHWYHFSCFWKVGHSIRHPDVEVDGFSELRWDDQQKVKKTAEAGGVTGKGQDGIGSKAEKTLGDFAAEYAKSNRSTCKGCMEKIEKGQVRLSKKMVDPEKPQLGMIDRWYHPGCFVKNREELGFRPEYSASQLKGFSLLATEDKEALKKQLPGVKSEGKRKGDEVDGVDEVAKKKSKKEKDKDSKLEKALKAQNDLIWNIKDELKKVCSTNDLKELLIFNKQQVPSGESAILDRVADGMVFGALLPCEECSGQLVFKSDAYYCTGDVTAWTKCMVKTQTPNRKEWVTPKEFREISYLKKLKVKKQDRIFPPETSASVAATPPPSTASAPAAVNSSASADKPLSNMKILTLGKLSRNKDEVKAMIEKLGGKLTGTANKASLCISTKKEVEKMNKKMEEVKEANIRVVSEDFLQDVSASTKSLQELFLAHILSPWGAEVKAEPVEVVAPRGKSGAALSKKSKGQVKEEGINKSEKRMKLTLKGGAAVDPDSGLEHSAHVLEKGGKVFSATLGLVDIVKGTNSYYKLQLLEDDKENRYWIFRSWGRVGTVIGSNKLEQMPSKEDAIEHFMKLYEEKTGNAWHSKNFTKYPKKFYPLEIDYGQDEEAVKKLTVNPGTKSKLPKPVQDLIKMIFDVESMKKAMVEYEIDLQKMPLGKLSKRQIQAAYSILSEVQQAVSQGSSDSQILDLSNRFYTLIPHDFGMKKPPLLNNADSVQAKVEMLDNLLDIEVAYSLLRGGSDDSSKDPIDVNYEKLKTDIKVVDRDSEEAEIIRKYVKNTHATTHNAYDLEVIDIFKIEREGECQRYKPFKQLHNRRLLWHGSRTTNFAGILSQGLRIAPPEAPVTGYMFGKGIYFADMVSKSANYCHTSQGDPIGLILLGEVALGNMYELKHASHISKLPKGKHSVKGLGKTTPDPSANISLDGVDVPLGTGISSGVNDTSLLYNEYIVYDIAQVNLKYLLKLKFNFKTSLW
pKd: −log10 of the molar value.
Readout Name: pKd

Completed entries (count: 5):
Compound	Reported Measurement
CNC(=O)c1ccc(N2CCC(N3CCCC(c4nc5ccccc5c(=O)[nH]4)C3)CC2)c(C)n1 (single isomer, unassigned) [Compound 131a]	6.00 to 7.00
CNC(=O)c1ccc(N2CCC(N3CCC(c4nc5c(C(F)(F)F)cccc5c(=O)[nH]4)C3)CC2)cn1 (single isomer, unassigned) [Compound 178b]	> 8.00
CNC(=O)c1ccc(N2CCC(N3CCC(c4cc5c(Cl)cccc5c(=O)[nH]4)C3)CC2)cn1 (single isomer, unassigned) [Compound 137a]	> 8.00
CNC(=O)c1ccc(N2CCC(N3CCC(c4nc5c(F)cc(F)cc5c(=O)[nH]4)C3)CC2)cn1 (single isomer, unassigned) [Compound 181b]	> 8.00
CNC(=O)c1ccc(N2CCC(N3CCC(c4nc5cccnc5c(=O)[nH]4)C3)CC2)cn1 (single isomer, unassigned) [Compound 77a]	6.00 to 7.00

Tell me the measured pKd of CNC(=O)c1ccc(N2CCC(N3CCCC(c4nc5onc(C(F)(F)F)c5c(=O)[nH]4)C3)CC2)cn1 (racemic) [Compound 191rac] , please. 6.00 to 7.00

----------
Reported pKd is given for each of the following molecules.
molecular target: full length N-terminally FLAG-tagged PARP1 (Homo sapiens); assay: PARP1 probe displacement HTRF assay; conditions: read-out: PARP1 HTRF; binned Kd, probe displacement HTRF
pKd: −log10 of the molar value.

Please review the entries below; each comes with its answer.
Molecule	pKd
CC(=O)Nc1ccc(N2CCC(N3CCC(c4cc5ccccc5c(=O)[nH]4)C3)CC2)cc1 (single isomer, unassigned) [Compound 289b]	7.00 to 8.00
CC(=O)NC(=O)c1ccc(N2CCC(N3CCC(c4cc5ccccc5c(=O)[nH]4)C3)CC2)cn1 (single isomer, unassigned) [Compound 333b]	7.00 to 8.00

Attention now turns to another entry.
Give the reported pKd for CNC(=O)c1ccc(N2CCC(N3CCC(c4[nH]c(=O)c5ccccc5c4Cl)C3)CC2)cn1 (single isomer, unassigned) [Compound 219b] (system: full length N-terminally FLAG-tagged PARP1 (Homo sapiens)). > 8.00

----------
target: full length N-terminally FLAG-tagged PARP1 (Homo sapiens); assay: PARP1 biochemical DELFIA assay (auto-PARylation); parameters: recombinant full length human N-terminally FLAG-tagged PARP1; conditions: binned IC50, PARP1 biochemical DELFIA assay
pIC50: −log10 of the molar value.
Readout Name: pIC50

Compound	Reported Measurement
CCc1cnc(C2CCN(C3CCC(F)(F)CC3)CC2)[nH]c1=O	5.00 to 6.00
CNC(=O)c1ccc(N2CCC(N3CCCC(c4nc5ccccc5c(=O)[nH]4)C3)CC2)c(C)n1 (single isomer, unassigned) [Compound 131b]	> 8.00
CNC(=O)c1ccc(OCCN2CCC(c3nc4ccccc4c(=O)[nH]3)C2)cn1 (single isomer, unassigned) [Compound 62b]	6.00 to 7.00
CNC(=O)c1ccc(N2CCC(N3CCCC(c4nc5cnccc5c(=O)[nH]4)C3)CC2)cn1 (single isomer, unassigned) [Compound 106b]	5.00 to 6.00
CNC(=O)c1ccc(N2CCC(N3CCC(c4cc5c(Cl)cccc5c(=O)[nH]4)C3)CC2)cn1 (single isomer, unassigned) [Compound 137a]	> 8.00

Please find the next compound below.
Record request: pIC50 value, item CNC(=O)c1ccc(N2CCC(N3CCC(c4nc5c(F)cc(F)cc5c(=O)[nH]4)C3)CC2)cn1 (single isomer, unassigned) [Compound 181a] 7.00 to 8.00
